experimental target: human full-length MKNK1 (Homo sapiens (Human), UniProt Q9BUB5, T344D)
Sequence (Q9BUB5 other isoform, or with tags, fused parts or gaps T344D): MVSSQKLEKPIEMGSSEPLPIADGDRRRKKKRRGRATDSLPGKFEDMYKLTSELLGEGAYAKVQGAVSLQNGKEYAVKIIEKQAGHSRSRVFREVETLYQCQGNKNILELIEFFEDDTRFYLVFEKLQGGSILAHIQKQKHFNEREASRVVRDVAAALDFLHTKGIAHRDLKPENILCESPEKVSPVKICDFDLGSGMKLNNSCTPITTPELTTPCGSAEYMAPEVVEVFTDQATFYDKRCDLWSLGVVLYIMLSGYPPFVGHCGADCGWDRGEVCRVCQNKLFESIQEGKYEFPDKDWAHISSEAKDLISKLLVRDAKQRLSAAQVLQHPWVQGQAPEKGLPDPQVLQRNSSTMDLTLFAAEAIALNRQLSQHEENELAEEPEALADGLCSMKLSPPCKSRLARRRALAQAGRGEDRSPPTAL
assay notes: MKNK1 kinase high ATP assay (TR-FRET)
Assay type: biochemical
conditions: high ATP (2 mM), 15 min preincubation with enzyme; read-out: MKNK1 IC50
Method: MKNK1 Kinase High ATP Assay MKNK1-inhibitory activity at high ATP of compounds of the present invention after their preincubation with MKNK1 was quantified employing the TR-FRET-based MKNK1 high ATP assay as described in the following paragraphs. […]
pIC50 values for the molecules below.
Please treat pIC50 as minus the base-10 logarithm of the molar concentration.

Before answering, review these 3 worked examples.
- CN(C)CCN1CCN(C(=O)[C@H]2CCc3c(sc4ncnc(Nc5cc6ccnn6cc5Cl)c34)C2)CC1 [Example 66]: 8.22
- CC1(O)CN(C(=O)[C@H]2CCc3c(sc4ncnc(Nc5cc6ccnn6cc5Cl)c34)C2)C1 [Example 52]: 8.10
- CN(C)C1CN(C(=O)[C@H]2CCc3c(sc4ncnc(Nc5cc6ccnn6cc5Cl)c34)C2)C1 [Example 54]: 7.96

Kindly review the next molecule as well.
Query block: # get_value(readout='pIC50', item= CN(C)CCN(C)C1CCN(C(=O)[C@H]2CCc3c(sc4ncnc(Nc5ccn6nccc6c5)c34)C2)CC1 [Example 40] )
Result block: 8.22
